# target under test: human PCSK9 (human, UniProt Q8NBP7 31-692)
# Sequence (Q8NBP7 31-692 limits assumed): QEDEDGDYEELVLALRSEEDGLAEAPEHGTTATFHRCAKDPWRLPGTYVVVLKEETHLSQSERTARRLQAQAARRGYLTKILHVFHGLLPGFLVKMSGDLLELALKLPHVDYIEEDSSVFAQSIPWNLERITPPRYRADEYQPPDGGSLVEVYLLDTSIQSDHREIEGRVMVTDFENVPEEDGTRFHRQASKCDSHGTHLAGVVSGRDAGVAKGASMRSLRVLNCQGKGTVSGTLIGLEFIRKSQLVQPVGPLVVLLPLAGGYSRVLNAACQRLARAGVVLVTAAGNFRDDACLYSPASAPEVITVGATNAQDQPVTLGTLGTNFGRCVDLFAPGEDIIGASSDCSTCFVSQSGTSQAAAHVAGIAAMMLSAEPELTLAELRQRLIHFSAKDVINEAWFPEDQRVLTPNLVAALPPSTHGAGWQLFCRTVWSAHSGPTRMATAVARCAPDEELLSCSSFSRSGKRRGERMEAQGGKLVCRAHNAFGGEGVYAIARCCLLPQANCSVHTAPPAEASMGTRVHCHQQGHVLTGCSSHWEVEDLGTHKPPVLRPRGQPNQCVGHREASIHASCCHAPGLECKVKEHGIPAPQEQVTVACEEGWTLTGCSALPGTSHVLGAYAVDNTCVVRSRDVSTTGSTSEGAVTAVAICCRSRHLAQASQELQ
# test summary: cell-based or functional assay
metric name: Fab IC50 (nM), inhibition of PCSK9 on LDL uptake
// return numeric value only (unit: nM, not printed)

Determine from records and report Fab IC50 (nM), inhibition of PCSK9 on LDL uptake for AX137 Fab (Fab, V domains shown) VH: EVQLLESGGGLVQPGGSLRLSCKASGYTFSSYGMYWVRQAPGKGLEWIGWIDPGSGGTKYNEKFKGKATISRDNSKNTLYLQMNSLRAEDTAVYYCARERYGYYFDYWGQGTLVTVSS VL: EIVLTQSPATLSLSPGERATITCRASQYIGSYLNWYQQKPGQAPRLLIYDASNRATGIPARFSGSGSGTDFTLTISSLEPEDFAVYYCQAWDSSPPVVFGGGTKVEIK
74.4

Entry AX139 Fab (Fab, V domains shown) VH: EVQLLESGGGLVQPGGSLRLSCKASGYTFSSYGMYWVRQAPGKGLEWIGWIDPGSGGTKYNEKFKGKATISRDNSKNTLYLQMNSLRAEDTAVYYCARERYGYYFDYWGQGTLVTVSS VL: EIVLTQSPATLSLSPGERATITCRASQYVGSYLNWYQQKPGQAPRLLIYDAANRATGIPARFSGSGSGTDFTLTISSLEPEDFAVYYCQVWDSSPPVVFGGGTKVEIK needs its Fab IC50 (nM), inhibition of PCSK9 on LDL uptake filled in; supply it.
37.7

Here's the next entry for you.
Look up Fab IC50 (nM), inhibition of PCSK9 on LDL uptake of AX114 Fab (Fab, V domains shown) VH: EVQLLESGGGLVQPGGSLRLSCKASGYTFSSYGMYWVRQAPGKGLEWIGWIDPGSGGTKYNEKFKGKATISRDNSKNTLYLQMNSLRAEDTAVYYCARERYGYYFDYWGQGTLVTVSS VL: EIVLTQSPATLSLSPGERATITCRASQYVGTYLNWYQQKPGQAPRLLIYDASNRATGIPARFSGSGSGTDFTLTISSLEPEDFAVYYCQVWDSSPPVAFGGGTKVEIK and report it.
179
